System: RARb:RXRa (NR concentration 270 nM, RXRa partner concentration 90 nM)
Experiment: PBM binding z-score (relative to random genomic background probes); higher = stronger binding; sequences stand for … in GC…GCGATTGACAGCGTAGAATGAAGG
Measurement Name: PBM binding z-score

* CCTAGCAGGCCAGGGTCACTTAAGCATTTCGCTT | 2.54
* TCGAGAAGGTTAGGGGCATTCAGAATGGCGTCGA | 2.02
* CCGACGGGGGCATAAGGTTACCATAAGCCAGCCC | 2.86
* CTCAAAAGGTCGTGCTCAGGTGAGTATACCAAAC | 4.03

###

The following sequences are listed with their measured PBM binding z-score values.
Tested on: PXR:RXRa (NR concentration 270 nM, RXRa partner concentration 90 nM)
Experiment: PBM binding z-score (relative to random genomic background probes); higher = stronger binding; sequences stand for … in GC…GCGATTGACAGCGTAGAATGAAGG
Measurement Name: PBM binding z-score

- CCCGAAAGGTCGGTTGAGGTGAGTATACGGATAA: 3.49
- CGAACTAGGTCGGAACAGGACAGTGAAGGATGAT: -0.28
- ATATGTAGGTTAAGGCTCATTCAGGTTGGTTCGC: 0.38
- CAAACTTGGTCACCGGAAGGTCAAAGTCCGCATG: 4.26
- TCTTGTAGATCAACAGGAGGTAAAGAAAGATCGA: 0.0383
- TCATATAGGTACATGCTAGGTGAAAGTCCGATCT: 0.528
- CCTAGTTGGTCAAGAGGTCACACACCGGATATGA: 4.96
- TCTAGCAGGCCCGAGGGTCACTCAAGAGGTACGG: 1.35
- ACTCGTAGGACAAAGGTCAGAGCTACGCCAGTGA: 3.73
- GTGACTGGGGCAAAGCAGGTTACCATAAGGTTGG: 0.926
- CGAAGTAGGTCAAGGACAGTGAATCTCCGCACGC: 1.39
- CCTTACGGGTCAAGGTTTTAGCACGGGTGGTACG: 2.95
- CAAACTAGGTCACGATAGGTCAAAGTCGAATGAC: 5.42
- GCTGCTAGGTCAACAGATGGTCAGCTAAAGCTCG: 1.22
- TCTAGCAGGCCAGAGGGTCACTCAAGAGGTACGG: 1.57
- AATATAGGGTCATCGTAGGCCAGAGTACGCACAG: 4.98
- ATATGTAGGGTATCGGGTCATTCAGTTTGCGCAT: 3.66
- AGAATGAGGTTTTACGTAGATCAGGGAAGAAAGT: 0.0449
- TCTATTAGTTGAAGGCCAACCGACGAGTCCGTTT: 0.903
- TCTTGTAGATCAAGCCGGTTAAGAAAGCCTGAGT: 0.392
- ATCTCTAGGTAAAAGTTCAGTGTATCCCGAGGAT: 2.25
- CCTTACGGGGCAAGGTTATAGCACGGGTGGTACG: 0.145
- ACTAGAAGGCCAAGTTTGGGTCACTCAAACAAAG: 1.2
- TAGCCTAGGTCATTCAGGGGCCAGTCTAGAAAGC: 2.58
- GCTAGCAGGCCATCTGGGTCACTCAATGACGGGC: 0.27
- CCTTACGGGTCAAGGTTATAGCGCGGGTGGTACG: 3.27
- AGAATGAGGCTACCAAAGATCAGGGAAACGCTTG: -0.51
- CGAACTAGGTGAGAACAGGACAGTGAAGGATGAT: 0.0752
- CCTACTGAGCCAAAAAGGTCATTGATGCCGATAA: 4.49
- TCTATTAGTTGATTAGGGCAGCCGAAACAGCGGA: 0.355
- CCTACTGGGCCGTCAGGTCATTGATATCAACGTT: 1.33
- AGAATGAGGTTATATGTAGATCAGGGAAGAAAGT: 1.2
- GCTGCTAGGTCTGGTTGGTCAGCTAACGGGTACG: -0.762
- TAGCCTACGTCAGATCGGGCCAGTATACGCTATA: -0.718
- CTCGCAAGGTCGGTTGAGGTGAGTATACGGATAA: 1.73
- AGTCAAAGTTCACTAAGTAACGTAAGATTCAGCT: 3.63
- TCATATAGGTAATACAGGTGAAAGGCGGCATCTA: 1.04
- TCATATAGGTAAAAGGTGAAATTCGGTGTGGTAA: 1.62
- CCTCGGAGGACAGAAGGGCAGAGCTGTCCGCTTT: -0.857

Origin of the recorded values: the supplement of paper PMC6555819
